The following binders are shown together with reported Binding to 1 nM KDR, % values.
# assayed_target: T1, human vascular endothelial growth factor receptor-2 Fc chimera (KDR-Fc) (human, UniProt P35968 20-764)
# T1 construct: range 1-764; also called human VEGFR-2; not shown: human IgG1 Fc
# T1 sequence (P35968 20-764 limits assumed, change not shown, form in doubt): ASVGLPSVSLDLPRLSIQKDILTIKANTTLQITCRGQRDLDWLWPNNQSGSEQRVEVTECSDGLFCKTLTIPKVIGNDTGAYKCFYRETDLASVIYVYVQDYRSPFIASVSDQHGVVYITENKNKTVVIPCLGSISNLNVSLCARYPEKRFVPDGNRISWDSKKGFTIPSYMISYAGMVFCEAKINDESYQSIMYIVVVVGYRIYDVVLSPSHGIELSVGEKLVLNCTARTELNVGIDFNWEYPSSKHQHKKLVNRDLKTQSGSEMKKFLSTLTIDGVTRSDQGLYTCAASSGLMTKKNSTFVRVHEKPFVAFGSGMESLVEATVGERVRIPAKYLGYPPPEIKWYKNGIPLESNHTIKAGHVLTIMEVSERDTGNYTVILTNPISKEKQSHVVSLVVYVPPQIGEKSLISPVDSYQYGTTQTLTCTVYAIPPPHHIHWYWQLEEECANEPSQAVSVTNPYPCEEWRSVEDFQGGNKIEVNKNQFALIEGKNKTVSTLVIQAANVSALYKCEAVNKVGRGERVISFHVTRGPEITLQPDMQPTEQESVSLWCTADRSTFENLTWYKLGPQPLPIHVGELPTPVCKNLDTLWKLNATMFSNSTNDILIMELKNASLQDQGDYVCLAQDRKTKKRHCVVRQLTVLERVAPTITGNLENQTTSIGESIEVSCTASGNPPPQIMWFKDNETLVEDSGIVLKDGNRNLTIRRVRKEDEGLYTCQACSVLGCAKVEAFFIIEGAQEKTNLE
# experimental_protocol: radioactive equilibrium binding assay, 1 nM KDR-Fc, % of input bound

binder	u	Binding to 1 nM KDR, %
E18 (designed binder, 10Fn3 clone, Del 1-8) EVVAATPTSLLISWRHPHFPTRYYRITYGETGGNSPVQEFTVPLQPPTATISGLKPGVDYTITGYAVTVERNGRELNTPISINYRT	%	17
E21 (designed binder, 10Fn3 clone, Del 1-8) EVVAATPTSLLISWRHPHFPTRYYRITYGETGGNSPVQEFTVPLQPPTATISGLKPGVDYTITGYAVTWGYKDHELLIPISINYRT	%	47
D3 (designed binder, 10Fn3 clone, Del 1-8) EVVAATPTSLLISWRHPHFPTRYYRITYGETGGNSPVQEFTVPLQPPTATISGLKPGVDYTITGYAVTVERNGRALMTPISINYRT	%	36
B4 (designed binder, 10Fn3 clone, Del 1-8) EVVAATPTSLLISWRHPHFPTRYYRITYGETGGNSPVQEFTVPLQPPTATISGLKPGVDYTITGYAVTNERNGRELMTPISINYRT	%	19
E5 (designed binder, 10Fn3 clone, Del 1-8) EVVAATPTSLLISWRHPHFPTRYYRITYGETGGNSPVQEFTVPLQPPTATISGLKPGVDYTITGYAVTDGQNGRLLNVPISINYRT	%	26
